All values here come from patent US12723255B2.

# assay-explanation: enzyme activity assay at 23° C. with purified enzyme
# Assay type: biochemical
# condition-parameters: wild-type set at 100%
experimental-endpoint: maximum activity as a percentage of the wild-type enzyme's activity, Fluazifop (%)

molecule	test-result
MON-HT55: engineered oxygenase protein, amino acid sequence SEQ ID NO:11 (protein) MHAALSPLSQRFERIAVQPLTGVLGAEITGVDLREPLDDSTWNEILDAFHTYQVIYFPGQAITNEQHIAFSRRFGPVDPVPLLKSIEGYPEVQMIRREANESGRVIGENWHTDSTFLDAPPAAVVMYAKEIPPYGGDTLFTSMYTAWETLSPTMQATIEGLNVVHSATRVFGSLYQAQNRRFSNTSVKVMDVDAGDRETVHPLVVTHPETGRKGLYVNQVYCQRIEGMSEKESEPLLSFLFAHATKPEFTCRVRWQEGDVLVWDNLCTQHYAVPDYAGKFRYLTRTTVGGVRPAR	38
